B1: library; numbered along this chain (parent)
chain: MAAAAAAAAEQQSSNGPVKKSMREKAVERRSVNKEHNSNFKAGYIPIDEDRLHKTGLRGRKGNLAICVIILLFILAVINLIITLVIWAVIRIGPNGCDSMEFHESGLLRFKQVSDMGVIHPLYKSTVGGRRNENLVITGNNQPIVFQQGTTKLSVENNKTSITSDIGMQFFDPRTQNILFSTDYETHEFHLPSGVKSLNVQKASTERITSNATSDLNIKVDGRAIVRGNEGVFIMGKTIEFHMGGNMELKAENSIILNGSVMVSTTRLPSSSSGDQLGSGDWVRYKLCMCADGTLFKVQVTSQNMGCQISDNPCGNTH

Variants of: B1
Assay: SGCB cell-surface expression functional score (HA stain, bin4 vs bin1, normalised to synonymous) (log10 ratio); higher = more cell-surface SGCB (functional)
Record rule met whenever SGCB cell-surface expression functional score (log10) is at 0.07 or higher; record rule not met when lower.

The following variants have reported results that may help.
mutation.annotation: P313Y
group.label: rule not met
--
mutation.annotation: I66H
group.label: rule not met
--
mutation.annotation: N312L
group.label: rule met
--
mutation.annotation: S99L
group.label: rule met
--
mutation.annotation: V261N
group.label: rule not met

Tell me whether SGCB cell-surface expression functional score (log10) is at least 0.07 here: "I218T" rule not met

Tell me whether SGCB cell-surface expression functional score (log10) is at least 0.07 here: "V298P" rule not met

Tell me whether SGCB cell-surface expression functional score (log10) is at least 0.07 here: "G244L" rule met
